Exercise: state measured shrunken log2 fold change for each of the sequences provided.
# System: Escherichia coli TOP10;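 note: peptides expressed intracellularly from a pBAD plasmid library in pooled LB shake-flask culture, induced with 0.3% L-arabinose, DNA abundance read by NGS, three biological replicates, DESeq2 with apeglm shrinkage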
# PROTOCOL NOTES: shrunken log2 fold change of peptide-encoding DNA abundance (4.5 h post-induction vs induction); higher = less antimicrobial activity (less host growth inhibition)
# ASSAY SETUP: time post-induction: 4.5 h; library: site-saturation at positions 5, 18, 19, 20
Answers are plain numbers.

Reference set, count: 2
IN: Quick one: shrunken log2 fold change for `RRIRWRPPRLPRPRPRPIEHPRP` ?
OUT: -0.133

IN: Look up shrunken log2 fold change for this sequence: `RRIRRRPPRLPRPRPRPMWIPRP`
OUT: -0.137

Provide shrunken log2 fold change values for the following items, in order.
1. RRIRYRPPRLPRPRPRPSMQPRP
2. RRIRERPPRLPRPRPRPKMLPRP
3. RRIRRRPPRLPRPRPRPFEFPRP
4. RRIRNRPPRLPRPRPRPDDDPRP
5. RRIRYRPPRLPRPRPRPEVYPRP

OUT:
1. -0.288
2. -0.0332
3. 0.117
4. -0.153
5. -0.0597

Answer for every listed entry: what is its shrunken log2 fold change? The entries follow.
1. RRIRPRPPRLPRPRPRPRMTPRP
2. RRIRCRPPRLPRPRPRPDHMPRP
3. RRIRVRPPRLPRPRPRPLNDPRP
4. RRIRERPPRLPRPRPRPTSSPRP
5. RRIRFRPPRLPRPRPRPSMAPRP
6. RRIRFRPPRLPRPRPRPWDRPRP
7. RRIRIRPPRLPRPRPRPQYRPRP

OUT:
0.288
-0.0636
0.171
-0.303
0.0143
-0.167
-0.0599

IN: Name the recorded shrunken log2 fold change for `RRIRLRPPRLPRPRPRPDDKPRP` .
OUT: -0.525
